- Tested on: E. coli BL21
- assay.summary: MIC against Gram-negative bacteria: E. coli BL21
- Type: cell-based
- setup.conditions: E. coli BL21; 96-well plate, 5×10^5 CFU/mL, 37° C., 10 h
- Protocol: 1. Gram-negative bacteria, such as E. coli BL21, Pseudomonas aeruginosa, Klebsiella pneumonia, Enterobacter cloacae, Aeromonas hydrophila, Citrobacter diversus, Moraxella catarrhalis, Proteus mirabilis, Proteus vulgaris, Serratia marcescens, etc were streaked on solid LB medium and cultured respectively. Then, typical clones were picked, inoculated into common liquid LB medium respectively, and cultured at 37° C. with shaking at 185 rpm until the McFarland specific turbidity was 0.5. […]
quantity: MIC (μg/mL) E. coli BL21

Guide cases for MIC (μg/mL) E. coli BL21, answers given:
Which MIC (μg/mL) E. coli BL21 is reported for this substance? PRT93 (PLLHCAPGFCFPGVACIQTESGARCGPCPAGFTGNGSHCT; listed as Homo sapiens)
12.5 µg/mL

# repeat for PRT33 (ACELHTFGRTCKERCSGQEGCKSYVFCLPDPYGCSCATGWKGLQCN; listed as Homo sapiens)
50 µg/mL

# repeat for PRT130 (ITDRCLPSYCEHGGECSQSWDTFSCDCLGTGYTGETCH; listed as Homo sapiens)
25 µg/mL

# repeat for PRT80 (TNVCDLNPCEHQSVCTRKPSAPHGYTCECPPNYLGPYCE; listed as Homo sapiens)
50 µg/mL

# repeat for PRT40 (KGIDCSDGFNGGCEQLCLQQTLPLPYDATSSTIFMFCGCVEEYKLAPDGKSCL; listed as Homo sapiens)
12.5 µg/mL

# repeat for PRT127 (CSGHCTSYGTNCENGGKCLERYHGYSCDCSNTAYDGTFCN; listed as Homo sapiens)
12.5 µg/mL

# repeat for PRT43 (CKCNGHASLCNTNTGKCFCTTKGVKGDECQLCEVENRYQGNPLRGTCYY; listed as Homo sapiens)
25 µg/mL

# repeat for PRT39 (PVRDCSRNNGGCTRNFKCVSDRQVDSSGCVCPEELKPMKDGSGCY; listed as Homo sapiens)
25 µg/mL

// each substance listed below needs its MIC (μg/mL) E. coli BL21
1. PRT46 (CQCNGHSTCINNNVCEQCKNLTTGKQCQDCMPGYYGDPTNGGQCTA; listed as Homo sapiens)
2. PRT97 (DSRGCARWCPQNSSCVNATACRCNPGFSSFSEIITTPTETCD; listed as Homo sapiens)

1: 12.5 µg/mL; 2: 12.5 µg/mL

// each substance listed below needs its MIC (μg/mL) E. coli BL21
1. PRT68 (RSGRCANGVCKNGGTCVNLLIGGFHCVCPPGEYERPYCE; listed as Homo sapiens)
2. PRT44 (LYAQVSQSKPCERTGSCFSGRCVNSTCLCDPGWVGDQCQ; listed as Homo sapiens)

25 µg/mL
12.5 µg/mL

// each substance listed below needs its MIC (μg/mL) E. coli BL21
1. PRT19 (CSCDPQGAVRDDCEQMTGLCSCKPGVAGPKCGQCPDGRALGPAGCEA; listed as Homo sapiens)
2. PRT64 (PCSSSPCRGGATCALGPHGKNYTCRCPQGYQLDSSQLDCV; listed as Homo sapiens)
3. PRT134 (IKDRCLPNYCEHGGSCSQSWTTFYCNCSDTSYTGATCH; listed as Homo sapiens)

12.5 µg/mL
12.5 µg/mL
12.5 µg/mL
